Test system: OVCAR-4 ovarian
Assay: NCI-60 one-dose screen, 48 h (100 = growth as untreated, 0 = no growth, -100 = all killed)
Settings: 10 µM unless noted
Experimental: Growth inhibition of the OVCAR-4 human tumor cell line is measured as a screen for anti-cancer activity. Cells are grown in 96 well plates and exposed to the test compound for 48 hours. Compounds are tested at a single concentration, which is 10^-5 M for most compounds. The reported endpoint is percent growth (GI% or GIPRCNT), where numbers from 0 - 100% represent growth inhibition, and numbers from -100% - 0 represent cell death. For example, a value of 40 represents 60% growth inhibition. […]
The panel holds about 83,000 compounds, 20% with a hit somewhere; the sample as a whole holds those more often. Activity calls are given as the source filed them. The calls were made as follows: active = growth percent below 10; inactive = the rest.
quantity: growth

query: Indicate its recorded growth; the compound in question is O=C(Nc1ccc2cc3ccc(NC(=O)NC4CCCCC4)cc3nc2c1)NC1CCCCC1
result: 92.8% (inactive)

query: Report growth, nothing else, for this compound: CCN(CC)CCCCCCNc1cc(OC)cc2cccnc12
result: 44.6% (inactive)

query: Indicate its recorded growth; the compound in question is CC(=O)N1N=C(c2cccc(Nc3ccncc3)c2)CC1c1ccc2c(c1)OCO2 (stereo unspecified)
result: 90.3% (inactive)

query: # return recorded growth for input O=C(Nc1nc2ccc(S(=O)(=O)Nc3ccc(C4(C(F)(F)F)CC4)cc3)cc2[nH]1)c1cnccn1
result: 46.1% (inactive)

query: Kindly indicate its recorded growth. Item: NNC(=O)/C(=C\c1ccc([N+](=O)[O-])cc1)CC(=O)c1ccc(Cl)c(Cl)c1
result: 80% (inactive)

query: Using known records, supply growth for COc1ccccc1Nc1cc(O)c2c(=O)cc(-c3ccccc3)oc2c1
result: 65.6% (inactive)

query: Complete the entry with growth for O=C1c2ccccc2C(=O)c2c(NCCN=Cc3ccccc3O)cccc21
result: 72.1% (inactive)

query: Supply reported growth belonging to this compound: COc1ccc(NS(=O)(=O)c2ccc(C)cc2)c([N+](=O)[O-])c1
result: 115% (inactive)

query: Return value of growth for input COc1cc(C2CC(c3cccc(Nc4ccncc4)c3)=NN2C(C)=O)cc(OC)c1OC (stereo unspecified) , no commentary.
result: 83.8% (inactive)

query: Quick one: give measured growth for COc1cc(C2NC(c3cc(OC)c(OC)c(OC)c3)C(C#N)(C#N)C2(C#N)C#N)cc(OC)c1OC (stereo unspecified)
result: 100% (inactive)

query: Provide measured growth value, entry: CC1NC(=S)NC(=O)/C1=C/c1cc(=O)oc2c1ccc1ccccc12 (stereo unspecified)
result: 95.7% (inactive)

query: Report growth, nothing else, for this compound: O=CNc1cc(Cl)cc(Cl)c1
result: 113% (inactive)

query: Look up and report measured growth for this entry: CN(C)CCCn1c2c(c3ccc(-c4ccn[nH]4)cc3c1=O)C(=O)c1ccccc1-2
result: 77.9% (inactive)

query: Give recorded growth. CC(=O)OCCCCCNc1ccccc1
result: 92.8% (inactive)

query: Please list growth recorded for the compound O=C(Nc1cccc(Cl)c1)c1cc(Cl)ccc1O
result: 27.4% (inactive)

query: Please report the measured growth for O=C(OCc1nc2nc(Cl)nc(N3CCOCC3)c2[nH]1)n1ccnc1
result: -38.3% (active)

query: Look up and report measured growth for this entry: CCCCCN1C=C/C(=C\C(=O)N(C)c2ccc(Br)cc2)c2ccccc21
result: 84.4% (inactive)
